PROTOCOL_NOTES: qHTS of pediatric cancer cell lines to identify multiple opportunities for drug repurposing: Primary screen for Rh18 cells (AID 1347102); also: nearly all actives have a fitted effect of over 65% in size
RUN_CONDITIONS: Rh18 rhabdomyosarcoma viability, CellTiter-Glo luminescence, 48 h; series mostly up to 46 µM
Records with an inconclusive call do not appear. The source made the active and inactive calls. Calls follow the shape of the dose curve; as a rule, active = well fitted cell-killing curve with a large enough effect; inconclusive = small, poorly fitted or top-dose-only effect; inactive = flat fitted curve, though single readings scatter.
Select the matching outcome among active, inactive

See these solved cases before continuing.
{"MOLECULE": "NCCc1cc(O)c(O)cc1O", "DISCRETE_LABEL": "inactive"}
{"MOLECULE": "Oc1ccc(Cl)cc1Cc1ccccc1", "DISCRETE_LABEL": "inactive"}
{"MOLECULE": "N[C@@H](Cc1ccc(N(CCCl)CCCl)cc1)C(=O)O", "DISCRETE_LABEL": "active"}
{"MOLECULE": "Cc1ccc2c(c1)C1CN(C)CCC1N2 (configuration not stated)", "DISCRETE_LABEL": "inactive"}

Assay result, entry `Cc1ncc(CNC(=O)N(CCCl)N=O)c(N)n1` — outcome?
inactive

Assay result, entry `CC[N+](CC)(CC)CC` — outcome?
inactive

====

Tested on: CP238
PROTOCOL_NOTES: qHTS profiling for inhibitors of Plasmodium falciparum proliferation (AID 504749); also: nearly all actives have a fitted effect of over 60% in size
RUN_CONDITIONS: P. falciparum in erythrocytes, SYBR Green DNA, 72 h; series mostly up to 28.7 µM
Protocol: NIH National Institute of Allergy and Infectious Diseases [NIAID] NIH Chemical Genomics Center [NCGC] […] Because mature erythrocytes lack DNA, only Plasmodium-derived DNA is detected. NCGC Assay Protocol Summary: The SYBR Green viability assay was adapted from a method described previously (Plouffe et al., 2008). […] The following morning, fluorescence intensity at 485(14) nm excitation and 535(25) nm emission wavelengths was measured on an EnVision (Perkin Elmer) plate reader. […]
Inconclusive results are not listed. The source made the active and inactive calls. Calls follow the shape of the dose curve; as a rule, active = well fitted inhibition curve with a large enough effect; inconclusive = small, poorly fitted or top-dose-only effect; inactive = flat fitted curve, though single readings scatter.
Select the matching outcome among TRUE (active), FALSE (inactive)

See these solved cases before continuing.
{"COMPOUND": "NCC(CC(=O)O)c1ccc(Cl)cc1 (centres undefined)", "DISCRETE_LABEL": "FALSE"}
{"COMPOUND": "CC(=O)Nc1cc([As](=O)(O)O)ccc1O", "DISCRETE_LABEL": "FALSE"}
{"COMPOUND": "Clc1ccc(COC(Cn2ccnc2)c2ccc(Cl)cc2Cl)cc1 (centres undefined)", "DISCRETE_LABEL": "TRUE"}

Please turn your attention to the following entry.
Assay result, entry `CCN(C(C)=O)c1cccc(-c2ccnc3c(C#N)cnn23)c1` — outcome?
FALSE

====

PROTOCOL_NOTES: qHTS for Inhibitors of the Functional Ribonucleoprotein Complex (vRNP) of Lassa (LASV) Arenavirus: Viability assay - alamar blue signal for LASV Primary Screen (AID 1347083); also: nearly all actives have a fitted effect of over 80% in size
RUN_CONDITIONS: cell viability, alamar blue fluorescence (LASV minigenome counter-screen); series mostly up to 57.5 µM
Results filed as inconclusive are left out. The source made the active and inactive calls. Calls come from the whole dose curve; tested in HEK293 reporter line.
Select the matching outcome among T = active, F = inactive

See these solved cases before continuing.
{"COMPOUND": "CO[C@]12CC[C@@]3(C[C@@H]1[C@](C)(O)C(C)(C)C)[C@@H]1Cc4ccc(O)c5c4[C@@]3(CCN1CC1CC1)[C@H]2O5", "DISCRETE_LABEL": "F"}
{"COMPOUND": "COC[C@H]1OC(=O)c2coc3c2[C@@]1(C)C1=C(C3=O)C2CCC(=O)[C@@]2(C)C[C@H]1OC(C)=O (stereo partly drawn)", "DISCRETE_LABEL": "F"}
{"COMPOUND": "CCOc1ccc2ccccc2c1C(=O)N[C@@H]1C(=O)N2[C@@H]1SC(C)(C)[C@@H]2C(=O)O", "DISCRETE_LABEL": "F"}
{"COMPOUND": "CN1CCN(CCCN2c3ccccc3Sc3ccc(Cl)cc32)CC1", "DISCRETE_LABEL": "F"}
{"COMPOUND": "CO[C@H]1C=CO[C@@]2(C)Oc3c(C)c(O)c4c(O)c(c(/C=N/N5CCN(C)CC5)c(O)c4c3C2=O)NC(=O)/C(C)=C\\C=C[C@H](C)[C@H](O)[C@@H](C)[C@@H](O)[C@@H](C)[C@H](OC(C)=O)[C@@H]1C", "DISCRETE_LABEL": "F"}
{"COMPOUND": "O=C(CCCN1CCC(O)(c2ccc(Cl)cc2)CC1)c1ccc(F)cc1", "DISCRETE_LABEL": "F"}
{"COMPOUND": "CCC1(C2=NCCN2)Cc2ccccc2O1 (stereo not drawn)", "DISCRETE_LABEL": "F"}
{"COMPOUND": "C=C(CC)C(=O)c1ccc(OCC(=O)O)c(Cl)c1Cl", "DISCRETE_LABEL": "F"}

Assay result, entry `CN(C)CC/C=C1\c2ccccc2COc2ccccc21` — outcome?
F

Assay result, entry `CCN(CC)CCOC(=O)C(O)(c1ccccc1)c1ccccc1` — outcome?
F

Assay result, entry NCC(O)c1ccc(O)cc1 (stereo not drawn) — outcome?
F

Assay result, entry `CO[C@@H](C(=O)N1Cc2[nH]nc(NC(=O)c3ccc(N4CCN(C)CC4)cc3)c2C1)c1ccccc1` — outcome?
T
